Examples of sequences with documented PBM binding z-score follow.
- Tested on: LXRb:RXRa (NR concentration 270 nM, RXRa partner concentration 90 nM)
- ASSAY_NAME: PBM binding z-score (relative to random genomic background probes); higher = stronger binding; sequences stand for … in GC…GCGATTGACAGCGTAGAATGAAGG
EXPERIMENTAL_READOUT: PBM binding z-score

macromolecule_sequence=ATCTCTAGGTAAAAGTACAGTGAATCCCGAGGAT result_value=-0.267
macromolecule_sequence=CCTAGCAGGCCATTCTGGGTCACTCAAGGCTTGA result_value=2.17
macromolecule_sequence=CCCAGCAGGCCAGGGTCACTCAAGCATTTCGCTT result_value=1.61
macromolecule_sequence=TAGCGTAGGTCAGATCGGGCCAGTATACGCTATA result_value=0.809
macromolecule_sequence=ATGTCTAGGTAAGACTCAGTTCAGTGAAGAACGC result_value=-0.259
macromolecule_sequence=ATCGAAAGGTCGTGAGGTGAGTATGCAGAAAGGC result_value=2.91
macromolecule_sequence=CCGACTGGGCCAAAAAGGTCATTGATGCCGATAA result_value=3.93
macromolecule_sequence=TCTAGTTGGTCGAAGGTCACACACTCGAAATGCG result_value=3.38
macromolecule_sequence=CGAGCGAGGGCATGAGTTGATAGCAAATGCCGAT result_value=0.175
macromolecule_sequence=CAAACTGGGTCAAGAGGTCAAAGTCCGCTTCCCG result_value=5.53
macromolecule_sequence=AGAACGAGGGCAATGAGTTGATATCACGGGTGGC result_value=-0.00546
macromolecule_sequence=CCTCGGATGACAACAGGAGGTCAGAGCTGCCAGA result_value=1.53
